Please provide measured GI50 for the entries that follow.
tested on: UACC-257 melanoma; assay: NCI tumour cell line growth inhibition, 48 h

May I ask what GI50 has been recorded for "O=C1Nc2ccc(Cl)cc2/C1=C\c1c(-c2ccc(Cl)cc2)nc2sc(C3CC3)nn12" ? 3.36 µM

May I ask what GI50 has been recorded for "Oc1ccc(Cl)cc1C(c1cc(Cl)ccc1O)C(Cl)(Cl)Cl" ? 2.68 µM

May I ask what GI50 has been recorded for "COc1cc([N+](=O)[O-])c(OC)cc1-c1nc2sc(C)c(C)n2c1/C(N)=N/C(=N)N" ? 1.02 µM

May I ask what GI50 has been recorded for "COc1ccc(-c2cc(-c3ccc(Nc4nc(Nc5ccccc5)nc(Nc5ccc(Cl)cc5)n4)cc3)nc(N)n2)cc1" ? 15.9 µM

May I ask what GI50 has been recorded for "CN(C)c1ccc(/C=C\c2ccnc3ccccc23)cc1" ? 8.39 µM

May I ask what GI50 has been recorded for "CCOC(=O)CSc1cc(Cl)c(C)cc1S(=O)(=O)/N=C(/N=C/c1ccc([N+](=O)[O-])s1)NNC" ? 28.7 µM

May I ask what GI50 has been recorded for "COc1cc(/C=C/C(=O)c2cccc(-n3cc(-c4cc(OC)c(OC)c(OC)c4)[nH]c3=O)c2)cc(OC)c1OC" ? 2.22 µM

May I ask what GI50 has been recorded for "CCN1CCN(c2nc(C)cc(N(CCCNc3ccnc4cc(Cl)ccc34)Cc3ccc4c(c3)OCO4)n2)CC1" ? 1.8 µM

May I ask what GI50 has been recorded for "NC(=O)c1ccc2c(c1)-c1nc-2nc2[n-]c(nc3nc(nc4[n-]c(n1)c1ccc(C(N)=O)cc41)-c1ccc(C(N)=O)cc1-3)c1ccc(C(N)=O)cc21.[Co+2]" ? > 50 µM

May I ask what GI50 has been recorded for "C#Cc1cccc(Nc2ncnc3cc(NC(=O)CCl)ccc23)c1" ? 3.76 µM

May I ask what GI50 has been recorded for COC1(CC[C@@H](C)COC2OC(CO)C(O)C(O)C2O)O[C@H]2C[C@H]3[C@@H]4CC=C5C[C@@H](OC6OC(CO)C(OC7OC(C)C(O)C(O)C7O)C(O)C6OC6OC(C)C(O)C(O)C6O)CC[C@]5(C)[C@H]4CC[C@]3(C)[C@H]2[C@@H]1C (stereo partly specified) ? 2.56 µM

May I ask what GI50 has been recorded for "c1ccc(-c2oc(-c3ccccc3)c(CN3CCCCC3)c2CN2CCCCC2)cc1" ? 3 µM

May I ask what GI50 has been recorded for "c1cc(N[C@@H]2CCNC2)nc(-c2cnc3ccc(-c4cn[nH]c4)cn23)c1" ? 16.1 µM

May I ask what GI50 has been recorded for COC(=O)NC1C(C)OC(OC2C/C=C(/C)C3C=CC4C(OC5CC(OC6CCC(OC7CC(O)C(OC8CCC(O)C(C)O8)C(C)O7)C(C)O6)C(OC(C)=O)C(C)O5)C(C)CC(C)C4C3(C)/C(O)=C3/C(=O)OC4(CC(C=O)=CC(O)C4/C=C\2C)C3=O)CC1(C)[N+](=O)[O-] (stereo unspecified) ? 1.09 µM

May I ask what GI50 has been recorded for COc1cc2c(c(OC)c1OC)-c1ccc(NN(C(=O)c3ccccc3)C(=O)c3ccccc3)c(=O)cc1[C@@H](NC(C)=O)CC2 (tested in a mixture with another compound) ? 14.4 µM

May I ask what GI50 has been recorded for "CCOCC1(COCC)CCC(c2[nH]ncc2CN(C)CCNC)CC1" ? > 100 µM

* * *

test system: CAKI-1 renal; experiment: NCI tumour cell line growth inhibition, 48 h
observation.type: TGI

May I ask what TGI has been recorded for "O=C(O)c1nc2ccccc2nc1Nc1ccc(Cl)c(Cl)c1" ? 77.9 µM

May I ask what TGI has been recorded for COc1ccc(C(O)c2cc3c(N)c(C(=O)Nc4ccc(Cl)cc4)sc3nc2C)cc1 (stereo unspecified) ? 15.6 µM

May I ask what TGI has been recorded for "Cn1cc(/C=C\[N+](=O)[O-])c2ccccc21" ? > 100 µM

May I ask what TGI has been recorded for "Cn1c(CBr)nc2c1C(=O)c1nc(CBr)[nH]c(=O)c1C2=O" ? > 100 µM

May I ask what TGI has been recorded for "Clc1ccc(Nc2nnc(CNc3ccc(-c4nnc(Nc5ccc(Cl)cc5)s4)cc3)s2)cc1" ? > 100 µM

May I ask what TGI has been recorded for "O=c1[nH]/c(=C/c2ccc3c(c2)OCO3)c(=O)[nH]/c1=C/c1ccc2c(c1)OCO2" ? > 10 µM

May I ask what TGI has been recorded for "Cc1c(C)c2c(c(N)c1C#N)C(=O)N(O)C2=O" ? > 100 µM

May I ask what TGI has been recorded for "Cn1c(=O)c2[nH]c(N=O)nc2n(C)c1=O" ? > 100 µM

May I ask what TGI has been recorded for "O=C(Nc1ccc(Oc2ccc3nc(NC(=O)c4ccco4)[nH]c3c2)cc1)Nc1cc(C(F)(F)F)ccc1F" ? > 14.4 µM

May I ask what TGI has been recorded for "Nc1nc2c(N)cc(C(F)(F)F)cc2nc1-c1ccccc1" ? > 100 µM

May I ask what TGI has been recorded for "COc1ccc(N2C(=O)c3c(c4[nH]c5ccccc5c4c4ccc(C(C)(C)C)cc34)C2=O)cc1" ? > 100 µM

* * *

system: NCI/ADR-RES ovarian; assay: NCI tumour cell line growth inhibition, 48 h
Please provide measured TGI for the entries that follow.

Could you share what TGI was measured for "O=c1[nH]nc(Cc2ccccc2)n1/N=C/c1cccs1" , tested on NCI/ADR-RES ovarian? > 100 µM

Could you share what TGI was measured for CCCCN(CCCC)C(=O)[C@H](CC)[C@@H]1CC[C@@H](C)[C@@H]([C@H](C)[C@@H](O)[C@@H](C)C(=O)[C@H](CC)C2O[C@]3(C=C[C@@H](O)[C@]4(CC[C@@](C)([C@H]5CC[C@](O)(CC)[C@H](C)O5)O4)O3)[C@H](C)C[C@@H]2C)O1 (stereo partly drawn) , tested on NCI/ADR-RES ovarian? 9.02 µM

Could you share what TGI was measured for "CC1=NN(c2nc(N)nc(NS(=O)(=O)c3cc(C)c(Cl)cc3S)n2)C(C)(C)C1" , tested on NCI/ADR-RES ovarian? > 10 µM

Could you share what TGI was measured for "[N-]=[N+]=Nc1ccccc1-c1ccccc1[N+](=O)[O-]" , tested on NCI/ADR-RES ovarian? 92.1 µM

Could you share what TGI was measured for "CCN(CC)c1ccc(/C=C/C(=O)c2ccc(Nc3nc(Nc4ccccc4)nc(Nc4ccccc4)n3)cc2)cc1" , tested on NCI/ADR-RES ovarian? > 100 µM

Could you share what TGI was measured for COC(=O)C1(NC(=O)C(Cc2ccccc2)N(C(=O)OC(C)(C)C)C(=O)OC(C)(C)C)CCCC1 (stereo not drawn) , tested on NCI/ADR-RES ovarian? > 100 µM

Could you share what TGI was measured for "COc1ccc(-c2cc(-c3ccc(Nc4nc(Nc5ccccc5)nc(Nc5ccc(Cl)cc5)n4)cc3)nc(N)n2)cc1" , tested on NCI/ADR-RES ovarian? > 50 µM

Could you share what TGI was measured for "O=C1NC(=NCCc2ccc(F)cc2)S/C1=C\c1ccc2ncccc2c1" , tested on NCI/ADR-RES ovarian? > 25 µM

* * *

system: SNB-19 CNS; assay: NCI tumour cell line growth inhibition, 48 h
Please provide measured TGI for the entries that follow.

May I ask what TGI has been recorded for "CC(C)Oc1c(C2(c3ccccc3)SCCCS2)c(=O)c1=O" ? > 100 µM

May I ask what TGI has been recorded for "Cn1cc(/C=C\[N+](=O)[O-])c2ccccc21" ? > 100 µM

May I ask what TGI has been recorded for "Cc1cc(=O)oc2ccc(OC/C=C3\CCC(=O)O3)cc12" ? 30.8 µM

May I ask what TGI has been recorded for "CN(C)c1ccc(/C=C/C(=O)c2ccc(O)cc2)cc1" ? > 100 µM

May I ask what TGI has been recorded for "COC(=O)c1ccc2c(c1)CC1(C2)Cc2cc3c(cc2C1)CCC3" ? > 100 µM

May I ask what TGI has been recorded for "CN(C)CCNc1ccc2ncn3c4ccccc4c(=O)c1c23" ? 47.5 µM

* * *

test system: M14 melanoma; assay: NCI tumour cell line growth inhibition, 48 h
Where a SMILES comes first, the peptide text is derived from it. The star is where a group is joined. Trt = c1ccc(C(c2ccccc2)(c2ccccc2)*)cc1; Cbz = O=C(OCc1ccccc1)*
Please provide measured TGI for the entries that follow.

May I ask what TGI has been recorded for N#CC(NNC(=O)Cc1ccccc1)c1cccc(O)c1 (centres undefined) ? > 100 µM

May I ask what TGI has been recorded for O[C@]12C=C(c3nccc4c3[nH]c3ccccc34)[C@@H]3CCN(CCCC/C=C\CC1)C[C@@]31CC3/C=C\CCCCN3[C@H]12 (some centres undefined) ? 0.896 µM

May I ask what TGI has been recorded for C[C@H]1CC[P+](Cc2ccccc2)(c2ccccc2)C1 (some centres undefined) ? > 100 µM

May I ask what TGI has been recorded for CC(C)(C)OC(=O)NC1CCCC1C(=O)C1=CCCC1 (centres undefined) ? > 100 µM

May I ask what TGI has been recorded for "O=[N+]([O-])c1ccc(SN=S=NSc2cccc(SN=S=NSc3ccc([N+](=O)[O-])cc3)c2)cc1" ? > 100 µM

May I ask what TGI has been recorded for "O=C1Nc2ccc(Cl)cc2/C1=C\c1c(-c2ccc(Cl)cc2)nc2sc(C3CC3)nn12" ? 21.8 µM

May I ask what TGI has been recorded for "C1CNOCCCONCCCNOCCCONC1" ? > 100 µM

May I ask what TGI has been recorded for CCOC(=O)C(NC(=O)OCc1ccccc1)C(=O)O (centres undefined) ? > 100 µM

May I ask what TGI has been recorded for "CC(=O)Nc1ccc(C(=O)CCl)cc1" ? 7.38 µM

May I ask what TGI has been recorded for "CC(C)OC(=O)c1ccc(NCc2cc(O)ccc2O)cc1" ? 22.4 µM

May I ask what TGI has been recorded for "CCCn1c2c(c3ccccc3c1=O)C(=O)c1ccccc1-2" ? > 100 µM

May I ask what TGI has been recorded for "NS(=O)(=O)c1ccc(NC(=O)N/N=C/c2ccccc2O)cc1" ? > 100 µM

May I ask what TGI has been recorded for "Cn1c(CBr)nc2c1C(=O)c1nc(CBr)[nH]c(=O)c1C2=O" ? > 100 µM

May I ask what TGI has been recorded for "CO[C@H]1C[C@@H]2CC[C@@H](C)[C@@](O)(O2)C(=O)C(=O)N2CCCC[C@H]2C(=O)O[C@H]([C@H](C)C[C@@H]2CC[C@@H](OC(=O)C(C)(CO)CO)[C@H](OC)C2)CC(=O)[C@H](C)/C=C(\C)[C@@H](O)[C@@H](OC)C(=O)[C@H](C)C[C@H](C)\C=C/C=C/C=C/1C" ? > 10 µM

May I ask what TGI has been recorded for "CN(C)c1ccc(/C=C/C(=O)c2ccc(O)cc2)cc1" ? > 100 µM

May I ask what TGI has been recorded for "O=C1CCN2c3ccccc3[C@H]3Cc4cccc(c4[C@@H]2C3)CCO1" ? 49.1 µM

May I ask what TGI has been recorded for "O=C(O)c1nc2ccccc2nc1Nc1ccc(Cl)c(Cl)c1" ? 82 µM

May I ask what TGI has been recorded for CC(C)C1CNC(=O)C2(C=NC(C(C)C)CNC(=O)C3(C=N1)CCCO3)CCCO2 (centres undefined) ? > 10 µM

May I ask what TGI has been recorded for "CC(C)[C@@H]1CC[C@@H](C)C[C@H]1OC(=O)c1c2n(c3ccccc13)C[C@H]1OC(C)(C)O[C@@H]21" ? > 100 µM

May I ask what TGI has been recorded for "CCOC(=O)Cc1cc(OC)c(OC)cc1/C(Cl)=C(\CO)c1ccc(OC)c(OC)c1" ? > 100 µM

May I ask what TGI has been recorded for "Cc1c(O)c(=O)ccn1CCN" ? > 100 µM

May I ask what TGI has been recorded for "COc1cnc2c(c1)C(=O)c1c-2n(CCCNC2=NCCS2)c(=O)c2cc(F)ccc12" ? 1.32 µM

May I ask what TGI has been recorded for "O=Cc1c[nH]c2c(=O)[nH]cnc12" ? > 100 µM

May I ask what TGI has been recorded for "CC(=O)CCCCn1c(=O)c2c(nc(Br)n2C)n(C)c1=O" ? > 100 µM

May I ask what TGI has been recorded for CCC(NC(C)c1ccccc1)C(=O)c1ccc(OCc2ccccc2)c(OCc2ccccc2)c1 (centres undefined) ? > 100 µM

May I ask what TGI has been recorded for "O=C1[C@@H]2C(c3ccc(Br)cc3)=NO[C@@H]2C(=O)N1c1ccc(Cc2ccc(N3C(=O)[C@H]4C(c5ccc(Br)cc5)=NO[C@H]4C3=O)cc2)cc1" ? > 40 µM

May I ask what TGI has been recorded for COC(=O)C(=O)C(C(=O)OC)C(=O)C(=O)Nc1c(C)cccc1C (centres undefined) ? > 100 µM

May I ask what TGI has been recorded for "COc1cccc2c1-c1nc(N)c3c(OC)cccc3c1C2=O" ? > 100 µM

May I ask what TGI has been recorded for "CC1(C)OC(=O)C(C)(C)C(=O)O1" ? > 100 µM

May I ask what TGI has been recorded for CC1(C)OP(=O)(c2ccccc2)C=C1Sc1ccc([N+](=O)[O-])cc1[N+](=O)[O-] (centres undefined) ? > 100 µM

May I ask what TGI has been recorded for "CC(=O)OI1NC(=O)c2ccccc21" ? > 100 µM

May I ask what TGI has been recorded for CCS(=O)C(=O)N(O)c1ccc(Cl)cc1 (centres undefined) ? 35.1 µM

May I ask what TGI has been recorded for O=C1C(Cl)N(c2c(Cl)cccc2Cl)C1c1c[nH]c2ccccc12 (centres undefined) ? > 100 µM

May I ask what TGI has been recorded for COC1(CC[C@@H](C)COC2OC(CO)C(O)C(O)C2O)O[C@H]2C[C@H]3[C@@H]4CC=C5C[C@@H](OC6OC(CO)C(OC7OC(C)C(O)C(O)C7O)C(O)C6OC6OC(C)C(O)C(O)C6O)CC[C@]5(C)[C@H]4CC[C@]3(C)[C@H]2[C@@H]1C (some centres undefined) ? 8.42 µM

May I ask what TGI has been recorded for CC(C)/C=C1\CCC(CN(C)C)C1=O (centres undefined) ? 5.52 µM

May I ask what TGI has been recorded for "COc1nc(N=P(c2ccccc2)(c2ccccc2)c2ccccc2)cc(=O)n1C" ? > 100 µM

May I ask what TGI has been recorded for COC(=O)C(CO)NC(=O)C(CSC(c1ccccc1)(c1ccccc1)c1ccccc1)NC(=O)OCc1ccccc1 (centres undefined) (Cbz-Cys(Trt)-Ser-OMe; configuration not given here) ? 44 µM

May I ask what TGI has been recorded for CSC1=NC(=Nc2c(C)cccc2C)C2(CCC(C(C)(C)C)CC2)N1c1ccc(Cl)cc1 (centres undefined) ? > 100 µM

May I ask what TGI has been recorded for COC1C2C[C@@H](O)CCC2C(C(=O)OCCl)C[C@H]1O (some centres undefined) ? > 100 µM
